Numbers sourced from the supplement of paper PMC10567573.

B1: SLC6A17 (parent)
chain: HMFTPKLDKMLDPQVWREAATQVF

Variants of: B1
Experiment: protein stability index of a GFP-peptide fusion (GPS, HEK-293T) (PSI 1-6); higher = more stable;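 further: lentivirally expressed fusions sorted by FACS into six bins by GFP to DsRed ratio, PSI derived from sequencing read proportions per bin multiplied by bin number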
Conditions: c terminus: a fixed tail appended
In this section we review reported protein stability index values for a set of variants.
// print number alone

Please review the following examples before continuing.
Req: Quick one: protein stability index of P13N ?
Resp: 2.4

Req: Quick one: protein stability index of F24Q ?
Resp: 2.64

Req: Quick one: protein stability index of M10N ?
Resp: 1.99

Req: Quick one: protein stability index of K6R ?
Resp: 1.76

Then this variant:
Req: Quick one: protein stability index of E18G ?
Resp: 1.02
